Reference for the values: paper PMC5540273

%Inh: recorded values
- Tested on: TXK
- Run parameters: concentration: 1 μM, replicates: in singlicate; n = 1;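 further: KINOMEscan kinase panel screen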
Only the number, expressed in %, is required.

Worked examples, 3 compounds total:
>  <Smiles>
Cc1nnc(-c2ccc(C)c(-c3ccc(C(=O)Nc4ccc(NS(C)(=O)=O)cc4)cc3)c2)o1

>  <%Inh / %>
0

$$$$
>  <Smiles>
Fc1ccc(-c2nn3c(OCC(F)(F)F)cccc3c2-c2ccncc2)cc1

>  <%Inh / %>
18

$$$$
>  <Smiles>
O=c1cc(N2CCOCC2)nc2n(Cc3cccc4ccccc34)ccn12

>  <%Inh / %>
0

$$$$

Which measured %Inh value corresponds to c1ccc(-c2n[nH]cc2-c2ccnc3ccccc23)nc1 ?
4

* * *

- Test system: IKK-alpha
- Construct: gene CHUK
- Run parameters: concentration: 1 μM, replicates: in singlicate; n = 1
Property name: %Inh (%)
Only the number, expressed in %, is required.

Worked examples, 2 compounds total:
>  <Compound>
COc1cc2c(cc1OC[C@@H](O)CO)ncc1c3ccc(C#N)cc3[nH]c21

>  <Target>
IKK-alpha

>  <Recorded number>
51

$$$$
>  <Compound>
Cc1cn2c(=O)cc(N3CCOCC3)nc2n1Cc1cccc(Cl)c1Cl [GSK2334006]

>  <Target>
IKK-alpha

>  <Recorded number>
7

$$$$

Proceed to the following item.
Which measured %Inh value corresponds to CN1c2ccc(CNc3ccc(F)cc3)cc2-c2c(cnn2C)S1(=O)=O ?
0

* * *

%Inh: recorded values
- System: ACVR2A
- Run parameters: concentration: 1 μM, replicates: in singlicate; n = 1
Only the number, expressed in %, is required.

Worked examples, 3 compounds total:
>  <Compound>
CN(C1=C(c2ccccc2)C(=O)NC1=O)c1ccccc1

>  <%Inh (%)>
0

$$$$
>  <Compound>
COc1ccc(Nc2nccc(N3CCC(NC(=O)Nc4cccc(C(C)=O)c4)C3)n2)cc1 (stereo not drawn)

>  <%Inh (%)>
0

$$$$
>  <Compound>
Fc1ccc(-c2nn3c(OCC(F)(F)F)cccc3c2-c2ccncc2)cc1

>  <%Inh (%)>
0

$$$$

Which measured %Inh value corresponds to CC(=O)Nc1ccc(COc2ccc(Nc3ccnc4cc(-c5ccccn5)ccc34)cc2)cc1.Cl ?
0

Okay, and COc1cc2c(cc1OCCN1CCN(C)CC1)ncc1c3ccc(C#N)cc3[nH]c21 ?
10

Okay, and N#Cc1c(N2CCOCC2)sc(-c2ccn[nH]2)c1-c1ccc(Cl)cc1 ?
0

Okay, and c1ccc(-c2n[nH]cc2-c2ccnc3ccccc23)nc1 ?
2

Okay, and O=c1cc(N2CCOCC2)nc2n(Cc3cccc(C(F)(F)F)c3)ccn12 ?
0

Okay, and CC(C)Oc1ccc2c(-c3ccnc(Nc4ccc(N5CCN(C)CC5)cc4)n3)cnn2n1 ?
0

Okay, and Cn1cc(-c2ccc3c(c2)CCN3C(=O)Cc2ccccc2Cl)c2c(N)ncnc21 ?
0

Okay, and Cl.Oc1cccc(Nc2ccnc3cc(-c4ccncc4)ccc23)c1 ?
97.2

Okay, and COc1cc2c(cc1OC[C@@H](O)CO)ncc1c3ccc(C#N)cc3[nH]c21 ?
0

* * *

- Test system: TRKC
- Construct: gene NTRK3
- Run parameters: concentration: 1 μM, replicates: in singlicate; n = 1
%Inh: recorded values
Only the number, expressed in %, is required.

Worked examples, 6 compounds total:
>  <Compound>
COCCNC(=O)c1ccc(-c2cc(C(=O)NC3CC3)cc(F)c2C)cc1

>  <Property name>
%Inh

>  <Units of measure>
%

>  <Recorded number>
30

$$$$
>  <Compound>
O=C1NC(=O)C(N2CCc3ccccc32)=C1c1cccc(Cl)c1

>  <Property name>
%Inh

>  <Units of measure>
%

>  <Recorded number>
0

$$$$
>  <Compound>
COc1ccc(CNC(=O)NC2CCN(c3ccnc(Nc4ccc(OC)cc4)n3)C2)cc1 (centres unmarked)

>  <Property name>
%Inh

>  <Units of measure>
%

>  <Recorded number>
47

$$$$
>  <Compound>
Cc1cccc(-c2nc(Nc3ccc4ncsc4c3)c3ccccc3n2)n1

>  <Property name>
%Inh

>  <Units of measure>
%

>  <Recorded number>
0

$$$$
>  <Compound>
Nc1nc(-c2ccc3c(N)n[nH]c3c2)cc(N2CCCC2)n1

>  <Property name>
%Inh

>  <Units of measure>
%

>  <Recorded number>
0

$$$$
>  <Compound>
O=C(Nc1cccc(-c2nn3ncccc3c2-c2ccnc(Nc3cccc(C(F)(F)F)c3)n2)c1)c1c(F)cccc1F

>  <Property name>
%Inh

>  <Units of measure>
%

>  <Recorded number>
20

$$$$

Which measured %Inh value corresponds to O=C(c1ccc(-c2cc(-c3c[nH]nc3-c3ccccn3)ccn2)cc1)N1CCOCC1 ?
0

Okay, and Cc1cccc(-c2nc(-c3ccc(S(C)(=O)=O)cc3)sc2-c2ccncc2)c1 ?
0

Okay, and Fc1ccc(-c2ncn(CCCN3CCOCC3)c2-c2cccnc2)cc1 ?
0

Okay, and NS(=O)(=O)CCc1cccc(Nc2nccc(-c3c(-c4cccc(NC(=O)c5c(F)cccc5F)c4)nn4ccccc34)n2)c1 ?
11

Okay, and CN1c2ccc(NCc3ccc(F)cc3)cc2-c2c(cnn2C)S1(=O)=O ?
2

* * *

- System: ASK1
- Construct: gene MAP3K5
- Run parameters: concentration: 1 μM, replicates: in singlicate; n = 1
%Inh: recorded values
Number plus unit, in that order.

>  <Compound>
COc1cc2c(cc1OCCN1CCN(C)CC1)ncc1c3ccc(C#N)cc3[nH]c21

>  <Result>
0%

$$$$
>  <Compound>
CC(C)Oc1ccc2c(-c3ccnc(Nc4ccc(N5CCN(C)CC5)cc4)n3)cnn2n1

>  <Result>
0%

$$$$
>  <Compound>
COc1ccc(CNC(=O)NC2CCN(c3ccnc(Nc4ccc(OC)cc4)n3)C2)cc1 (stereo not drawn)

>  <Result>
0%

$$$$
>  <Compound>
CCc1nc(-c2cccc(C)c2)c(-c2ccnc(NCc3ccccc3)c2)s1

>  <Result>
0%

$$$$
>  <Compound>
C[C@@H](Oc1cc(-n2cnc3ccc(NC(=O)NC(C)(C)C)cc32)sc1C(N)=O)c1ccccc1Cl

>  <Result>
3%

$$$$
>  <Compound>
COc1ccc(Nc2nccc(N3CCC(NC(=O)Nc4cc(C)ccc4C)C3)n2)cc1 (stereo not drawn)

>  <Result>
12%

$$$$

Which measured %Inh value corresponds to Cl.Oc1cccc(Nc2ccnc3cc(-c4ccncc4)ccc23)c1 ?
0%

Okay, and COCCNC(=O)c1ccc(-c2cc(C(=O)NC3CC3)cc(F)c2C)cc1 ?
5%

Okay, and CCn1cnc2c(N)ncnc21 ?
15%

Okay, and NS(=O)(=O)c1cccc(-c2ccc3nccc(-c4cccc(S(N)(=O)=O)c4)c3c2)c1 ?
0%

Okay, and CC(=O)Nc1ccc(COc2ccc(Nc3ccnc4cc(-c5ccccn5)ccc34)cc2)cc1.Cl ?
10%

Okay, and COc1ccc(COc2cc(-n3cnc4ccccc43)sc2C(N)=O)cc1 ?
0%

Okay, and COc1cc2c(cc1OC[C@@H](O)CO)ncc1c3ccc(C#N)cc3[nH]c21 ?
0%

Okay, and CN1c2ccc(CNc3ccc(F)cc3)cc2-c2c(cnn2C)S1(=O)=O ?
0%

Okay, and Fc1ccc(-c2ncn(CCCN3CCOCC3)c2-c2cccnc2)cc1 ?
0%

Okay, and Cc1c(Cn2c(C)nn3c(=O)cc(N4CCOC(C)C4)nc23)cccc1C(F)(F)F (stereo not drawn) ?
1%

Okay, and O=C1Cc2cc(Nc3nc(NCc4cccc(S(=O)(=O)C(F)(F)F)c4)ncc3C(F)(F)F)ccc2N1 ?
11%

Okay, and Cc1cccc(-c2nc(Nc3ccc4ncsc4c3)c3ccccc3n2)n1 ?
15%

Okay, and COc1ccc(S(=O)(=O)NC2CCN(c3cc(C)nc(Nc4cccc(C#N)c4)n3)CC2)cc1.O=C(O)C(F)(F)F ?
0%

Okay, and CCc1ccnc(/C=C/c2n[nH]c3cc(Sc4ccccc4C(=O)NC)ccc23)c1 ?
0%

Okay, and Nc1nccc(-c2c(-c3ccc(F)cc3)ncn2C2CCN(CC(F)(F)F)CC2)n1 ?
0%

* * *

- Tested on: GRK2
- Construct: gene ADRBK1
- Run parameters: concentration: 1 μM, replicates: in singlicate; n = 1
%Inh: recorded values
Only the number, expressed in %, is required.

>  <Compound>
Cl.Nc1ncnc2occ(-c3ccc(NC(=O)Nc4cc(C(F)(F)F)ccc4F)cc3)c12 [SB-707548]

>  <Property name>
%Inh

>  <Units of measure>
%

>  <Recorded number>
0

$$$$

Lab request: please report %Inh under test system GRK2 for COc1ccc(COc2cc(-n3cnc4ccccc43)sc2C(N)=O)cc1 [GSK1024304]
0

* * *

- Tested on: FYN
- Run parameters: concentration: 1 μM, replicates: in singlicate; n = 1
%Inh: recorded values
Only the number, expressed in %, is required.

Worked examples, 2 compounds total:
>  <Compound>
CC(C)(C)n1cnc2c(N)ncnc21 [SKF-97359]

>  <Recorded number>
0

$$$$
>  <Compound>
NS(=O)(=O)c1cccc(-c2ccc3nccc(-c4cccc(S(N)(=O)=O)c4)c3c2)c1 [GW867253]

>  <Recorded number>
0

$$$$

Which measured %Inh value corresponds to O=C(NCCNc1ccnc(Nc2ccc(F)cc2)n1)c1cc2ccccc2s1 [GSK1379874] ?
0
